biological target: Tyrosine-protein kinase JAK2 (Homo sapiens, UniProt O60674, V617F); test: Binding affinity to 6XHis-tagged human JAK2 JH2 domain V617F mutant (513 to 827 residues) expressed in baculovirus infected Sf9 cells by MANT-ATP binding assay
Sequence (O60674 whole entry V617F, the tested form may be a part): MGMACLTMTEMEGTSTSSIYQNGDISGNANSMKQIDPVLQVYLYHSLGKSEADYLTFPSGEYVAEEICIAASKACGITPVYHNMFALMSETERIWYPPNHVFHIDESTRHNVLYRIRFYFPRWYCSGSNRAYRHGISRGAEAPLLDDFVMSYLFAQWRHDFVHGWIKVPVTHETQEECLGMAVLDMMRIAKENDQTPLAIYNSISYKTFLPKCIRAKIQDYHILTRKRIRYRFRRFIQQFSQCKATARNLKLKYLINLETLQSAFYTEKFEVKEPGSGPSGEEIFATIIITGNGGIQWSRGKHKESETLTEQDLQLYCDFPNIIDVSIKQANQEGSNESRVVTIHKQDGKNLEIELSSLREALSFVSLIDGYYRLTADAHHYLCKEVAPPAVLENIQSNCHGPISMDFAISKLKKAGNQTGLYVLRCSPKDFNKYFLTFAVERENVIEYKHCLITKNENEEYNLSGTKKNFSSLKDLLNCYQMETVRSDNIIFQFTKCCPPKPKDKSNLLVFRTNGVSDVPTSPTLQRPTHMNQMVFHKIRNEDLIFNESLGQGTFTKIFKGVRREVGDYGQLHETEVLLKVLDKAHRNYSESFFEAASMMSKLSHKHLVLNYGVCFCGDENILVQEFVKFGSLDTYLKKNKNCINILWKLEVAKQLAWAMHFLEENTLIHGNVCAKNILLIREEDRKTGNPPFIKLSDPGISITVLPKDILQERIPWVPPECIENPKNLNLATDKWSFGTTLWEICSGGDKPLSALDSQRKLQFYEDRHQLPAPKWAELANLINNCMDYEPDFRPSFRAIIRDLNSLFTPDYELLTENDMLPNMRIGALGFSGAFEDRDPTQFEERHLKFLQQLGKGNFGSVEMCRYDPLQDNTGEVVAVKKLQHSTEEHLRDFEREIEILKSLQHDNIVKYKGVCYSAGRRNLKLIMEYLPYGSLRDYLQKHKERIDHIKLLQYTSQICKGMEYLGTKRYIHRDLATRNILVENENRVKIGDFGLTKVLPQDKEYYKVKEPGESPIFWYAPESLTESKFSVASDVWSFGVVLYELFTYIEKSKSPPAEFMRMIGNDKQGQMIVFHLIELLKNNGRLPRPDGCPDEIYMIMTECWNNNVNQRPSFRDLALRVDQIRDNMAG
pKd: −log10 of the molar value.
experimentalEndpoint: pKd

INSERT INTO measurements (compound, resultvalue) VALUES
  ('Nc1ncnc2c1ncn2[C@@H]1O[C@H](COP(=O)(O)OP(=O)(O)OP(=O)(O)O)[C@@H](O)[C@H]1O [ADENOSINE TRIPHOSPHATE]', 5.89);

====

target: UniProt O60674; assay: Binding affinity to human C-terminal His8-tagged JAK2 pseudokinase (513 to 827 residues) expressed in baculovirus infected Hi-5 cells by intrinsic tryptophan fluorescence assay
experimentalEndpoint: Kd (nM)

INSERT INTO results (molecule, resultvalue) VALUES
  ('CC(C)CCN1c2nc(Nc3cc(F)c(O)c(F)c3)ncc2N(C)C(=O)C1C (stereo unspecified)', 620);
